Please provide measured Ki for the entries that follow.
# tested.target: GABA-A receptor; alpha-2/beta-3/gamma-2 (Homo sapiens, UniProt P18507+P28472+P47869)
# Sequence (P18507 whole entry): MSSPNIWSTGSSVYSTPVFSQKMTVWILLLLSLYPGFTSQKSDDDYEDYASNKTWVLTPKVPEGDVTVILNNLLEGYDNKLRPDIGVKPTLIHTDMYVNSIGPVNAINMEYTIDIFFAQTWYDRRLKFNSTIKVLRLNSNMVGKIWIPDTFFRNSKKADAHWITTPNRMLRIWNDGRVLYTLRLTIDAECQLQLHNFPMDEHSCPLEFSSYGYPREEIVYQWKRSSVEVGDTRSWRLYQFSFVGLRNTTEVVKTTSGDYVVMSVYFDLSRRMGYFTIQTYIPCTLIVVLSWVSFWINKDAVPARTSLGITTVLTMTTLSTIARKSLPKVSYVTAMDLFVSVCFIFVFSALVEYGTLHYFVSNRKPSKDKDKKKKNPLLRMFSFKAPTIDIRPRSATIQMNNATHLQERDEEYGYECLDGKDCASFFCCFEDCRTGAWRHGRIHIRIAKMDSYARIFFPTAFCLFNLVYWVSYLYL
# Sequence (P28472 whole entry): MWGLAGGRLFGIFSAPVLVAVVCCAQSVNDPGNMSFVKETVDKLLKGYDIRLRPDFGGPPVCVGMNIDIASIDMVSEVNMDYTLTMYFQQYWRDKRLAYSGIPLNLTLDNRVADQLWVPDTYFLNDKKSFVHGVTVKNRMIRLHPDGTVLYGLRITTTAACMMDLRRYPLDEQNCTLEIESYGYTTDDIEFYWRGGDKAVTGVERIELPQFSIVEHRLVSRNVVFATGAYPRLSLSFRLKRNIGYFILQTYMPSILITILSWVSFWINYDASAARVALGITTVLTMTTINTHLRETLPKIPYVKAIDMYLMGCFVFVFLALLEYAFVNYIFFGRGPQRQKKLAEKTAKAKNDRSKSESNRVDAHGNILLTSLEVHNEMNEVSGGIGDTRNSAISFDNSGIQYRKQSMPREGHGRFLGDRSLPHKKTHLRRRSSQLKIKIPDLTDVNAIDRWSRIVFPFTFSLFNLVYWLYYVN
# Sequence (P47869 whole entry): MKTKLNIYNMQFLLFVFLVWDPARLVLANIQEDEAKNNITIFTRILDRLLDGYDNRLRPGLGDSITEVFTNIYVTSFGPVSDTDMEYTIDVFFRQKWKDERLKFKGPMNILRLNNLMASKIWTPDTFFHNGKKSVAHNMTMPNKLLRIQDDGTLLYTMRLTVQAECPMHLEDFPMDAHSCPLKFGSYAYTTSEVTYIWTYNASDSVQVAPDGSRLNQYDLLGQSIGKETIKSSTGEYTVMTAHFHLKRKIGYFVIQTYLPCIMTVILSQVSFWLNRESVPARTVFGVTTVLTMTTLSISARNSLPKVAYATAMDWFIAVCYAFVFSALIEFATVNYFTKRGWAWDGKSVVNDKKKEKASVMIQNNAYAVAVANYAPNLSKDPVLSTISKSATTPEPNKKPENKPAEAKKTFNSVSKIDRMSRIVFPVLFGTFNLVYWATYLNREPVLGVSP
# protocol.details: Binding affinity tested against alpha-2-beta-3-gamma-2 GABAA/BzR receptor subtype.
# Format: protein-complex assay
Answers are plain numbers, in nM.

Answered examples (3):
In [3]: df
Out[3]:
                               entry_smiles  value_measured
0  C#Cc1ccc2c(c1)C(=O)N1CC[C@H]1c1c(-c3nc(C)no3)ncn1-2              56
1  CN1Cc2c(C(=O)OC(C)(C)C)ncn2-c2ccc([N+](=O)[O-])cc2C1=O            49.8
2  C#Cc1ccc2c(c1)C(=O)N1CCC[C@H]1c1c(-c3nc(C(C)C)no3)ncn1-2              85

// query Form field: reported Ki of `CCCCC(=O)c1ncn2c1CN(C)C(=O)c1cc(Cl)ccc1-2`
// result 2860
